# experimental.system: T1, human GFRα3 expressed with a C-terminal hFc tag (human)
# T1 construct: also called hGFRα3-hFc
# T1 sequence (chain, as listed by the source limits assumed): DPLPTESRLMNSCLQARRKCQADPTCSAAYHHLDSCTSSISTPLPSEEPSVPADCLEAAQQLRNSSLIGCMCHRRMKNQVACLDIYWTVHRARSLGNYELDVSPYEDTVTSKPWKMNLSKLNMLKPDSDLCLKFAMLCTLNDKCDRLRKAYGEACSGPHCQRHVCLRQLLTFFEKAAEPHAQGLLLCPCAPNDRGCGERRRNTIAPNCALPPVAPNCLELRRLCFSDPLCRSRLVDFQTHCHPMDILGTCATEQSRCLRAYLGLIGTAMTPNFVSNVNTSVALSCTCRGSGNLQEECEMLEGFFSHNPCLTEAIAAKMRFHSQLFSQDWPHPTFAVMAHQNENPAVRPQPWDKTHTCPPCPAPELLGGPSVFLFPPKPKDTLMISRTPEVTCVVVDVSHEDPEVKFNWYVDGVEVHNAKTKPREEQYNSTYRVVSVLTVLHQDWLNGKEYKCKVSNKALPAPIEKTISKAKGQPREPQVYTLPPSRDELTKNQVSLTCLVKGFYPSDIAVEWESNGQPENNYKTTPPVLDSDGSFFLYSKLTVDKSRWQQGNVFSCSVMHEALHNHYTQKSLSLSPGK
# run.description: BLI Octet, antigen on anti-hFc tips, 100 ug/mL Ab
# maps each entry to its Bound (nm)
All answers are understood in nm, so give the number only.

H4H2294S (antibody, human IgG4, V domains shown, human IgG4 Fc (H4H)) VH: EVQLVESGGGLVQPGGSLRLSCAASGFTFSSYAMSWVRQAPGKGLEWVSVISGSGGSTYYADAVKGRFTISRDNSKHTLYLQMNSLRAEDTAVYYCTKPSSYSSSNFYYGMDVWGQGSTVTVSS VL: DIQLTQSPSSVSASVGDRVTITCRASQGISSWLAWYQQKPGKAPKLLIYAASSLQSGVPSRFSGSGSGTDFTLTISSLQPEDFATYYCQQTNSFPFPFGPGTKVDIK
1.17

Asked: Give its Bound (nm) value. Item: H4H2243N2 (antibody, human IgG4, V domains shown, human IgG4 Fc (H4H)) VH: QVQLVQSGAEVKKPGASVKVSCKASGYTFTSYGIIWVRQAPGQGLEWMGWISGYNGNTNYAQNLQGRVTMTTDTSTTTAYMELRSLRSDDTAVYYCARWGIATRPYYYYGMDVWGQGTTVTVSS VL: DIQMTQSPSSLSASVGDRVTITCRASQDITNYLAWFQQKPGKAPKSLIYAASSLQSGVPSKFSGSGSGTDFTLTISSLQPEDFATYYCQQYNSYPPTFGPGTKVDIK
Given back: 1.11
